# assayed-system: GPR88 (Homo sapiens)
# Sequence (Q9GZN0 whole entry): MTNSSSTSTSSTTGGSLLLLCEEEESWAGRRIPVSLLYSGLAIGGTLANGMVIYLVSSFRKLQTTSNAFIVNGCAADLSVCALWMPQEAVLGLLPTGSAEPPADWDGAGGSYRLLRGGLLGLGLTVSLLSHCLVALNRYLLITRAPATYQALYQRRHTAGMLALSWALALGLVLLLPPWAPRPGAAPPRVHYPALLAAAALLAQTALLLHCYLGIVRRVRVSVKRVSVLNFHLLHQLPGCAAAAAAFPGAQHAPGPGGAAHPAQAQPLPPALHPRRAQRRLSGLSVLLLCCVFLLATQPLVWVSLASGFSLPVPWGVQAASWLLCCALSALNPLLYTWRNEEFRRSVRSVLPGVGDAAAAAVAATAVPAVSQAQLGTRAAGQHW
# method-description: Lance Ultra TR-FRET cAMP assay using stable PPLS-HA-GPR88 CHO cells
# condition-parameters: stable PPLS-HA-GPR88 CHO cells; value in parentheses beside pEC50
pEC50: −log10 of the molar value.
readout-kind: pEC50

[
  {
    "chemical-smiles": "CCCc1ccc(-c2ccc(N(C[C@@H](N)[C@@H](C)CC)C(=O)N[C@@H](C)c3ccccc3)cc2)cc1",
    "readout-kind": "pEC50",
    "reported-value": 5.99
  },
  {
    "chemical-smiles": "CCCC#Cc1ccc([C@@H](CO)C(=O)N[C@H](C)c2ccccc2)cc1",
    "readout-kind": "pEC50",
    "reported-value": 6.69
  },
  {
    "chemical-smiles": "CCCc1ccc(-c2ccc([C@@H](Cn3cncn3)C(=O)N[C@H](C)c3ccccc3)cc2)cc1",
    "readout-kind": "pEC50",
    "reported-value": 5.96
  },
  {
    "chemical-smiles": "C[C@@H](NC(=O)[C@H](CO)c1ccc(-c2ccc(OC3CCC3)cc2)cc1)c1ccccc1",
    "readout-kind": "pEC50",
    "reported-value": 6.65
  }
]

* * *

# assayed-system: UniProt:Q9GZN0
# method-description: Lance Ultra TR-FRET cAMP assay using stable PPLS-HA-GPR88 CHO cells
# condition-parameters: stable PPLS-HA-GPR88 CHO cells; value in parentheses beside pEC50

[
  {
    "chemical-smiles": "C[C@@H](NC(=O)[C@H](CO)c1ccc(-c2ccc(C3CCC3)cc2)cc1)c1ccccc1",
    "EC50 (nM)": 355
  },
  {
    "chemical-smiles": "CCCc1ccc(-c2ccc(N(C[C@@H](N)CC(C)C)C(=O)N[C@@H](C)c3ccccc3)cc2)cc1",
    "EC50 (nM)": 1200
  },
  {
    "chemical-smiles": "CC[C@@H](C)COc1ccc([C@@H](CO)C(=O)N[C@H](C)c2ccccc2)cc1",
    "EC50 (nM)": 3090
  },
  {
    "chemical-smiles": "CC(C)C#Cc1ccc([C@@H](CO)C(=O)N[C@H](C)c2ccccc2)cc1",
    "EC50 (nM)": 479
  }
]

* * *

# assayed-system: GPR88 (Homo sapiens)
# Construct: expressed in transfected cells
# method-description: Lance Ultra TR-FRET cAMP assay using stable PPLS-HA-GPR88 CHO cells
# Assay type: cell-based
# condition-parameters: CHO

[
  {
    "molecule": "CC(C)C#Cc1ccc([C@@H](CO)C(=O)N[C@H](C)c2ccccc2)cc1 [Compound 37]",
    "unit-of-measure": "%",
    "Emax": 102
  },
  {
    "molecule": "CCCc1ccc(-c2ccc(N(C[C@@H](N)[C@@H](C)CC)C(=O)N(C)c3ccccc3)cc2)cc1 [Compound 39]",
    "unit-of-measure": "%",
    "Emax": 97
  },
  {
    "molecule": "CCCc1ccc(-c2ccc(CC(=O)N[C@H](C)c3ccccc3)cc2)cc1 [Compound 26]",
    "unit-of-measure": "%",
    "Emax": 95
  },
  {
    "molecule": "CCc1ccc(-c2ccc(N(C[C@@H](N)[C@@H](C)OC)C(=O)N[C@@H](C)c3ccccc3)cc2)cc1 [Compound 56]",
    "unit-of-measure": "%",
    "Emax": 116
  },
  {
    "molecule": "CCCC(C)COc1ccc([C@@H](CO)C(=O)NC2(c3ccccc3)CC2)cc1 (some centres unmarked) [Compound 20]",
    "unit-of-measure": "%",
    "Emax": 81
  },
  {
    "molecule": "CCCc1ccc(-c2ccc([C@@H](CO)C(=O)N[C@H](C)c3ccccc3)cc2)cc1 [Compound 25]",
    "unit-of-measure": "%",
    "Emax": 96
  },
  {
    "molecule": "CCCC(C)COc1ccc([C@@H](CO)C(=O)N[C@H](CC)c2ccccc2)cc1 (some centres unmarked) [Compound 17]",
    "unit-of-measure": "%",
    "Emax": 102
  },
  {
    "molecule": "C[C@@H](NC(=O)[C@H](CO)c1ccc(-c2ccc(CC3CC3)cc2)cc1)c1ccccc1 [Compound 33]",
    "unit-of-measure": "%",
    "Emax": 87
  }
]
